// returns label 0 unless logP is strictly below 2, in which case label 1

* O=NN1CCCCCCC1 | label 1
* NNC(=O)NN=Cc1ccccc1 | label 1
* CC(C)=CC1C(C(=O)OCc2cccc([N+](=O)[O-])c2)C1(C)C (stereo unspecified) | label 0
* CCOC(=O)C(=Cc1cccc(C)c1)C(C)=O | label 0
* O=[N+]([O-])c1nccn1CC(O)CO (stereo unspecified) | label 1
* CNC(=NC#N)NC | label 1
* OCC1OC(Oc2ccccc2I)C(O)C(O)C1O (stereo unspecified) | label 1
* COc1ccc(CC(C)N)c(OC)c1OC (stereo unspecified) | label 1
* CC1(C)SC2C(NC(=O)C(NS(C)(=O)=O)c3ccccc3)C(=O)N2C1C(=O)O (stereo unspecified) | label 1
* CC(C)Oc1cn[nH]c1 | label 1
* O=C(NC(CO)C(O)c1ccc(Cl)cc1)C(Cl)Cl (stereo unspecified) | label 1
* CCOC(=O)C(=Cc1ccccc1OC)C(=O)OCC | label 0
* O=NN(CCCl)C(=O)NC1CCC(O)CC1 (stereo unspecified) | label 1
* CNC(=O)ON=Cc1ccc(Cl)cc1 | label 0
* CNP(=O)(OC)SC (stereo unspecified) | label 1
* Nc1ccc(OC2OC(CO)C(O)C(O)C2O)cc1 (stereo unspecified) | label 1
* O=[N+]([O-])c1cccc(C2NCCS2)c1 (stereo unspecified) | label 1
* O=S1(=O)NC(C2CCC2)=Nc2ccc(Cl)cc21 | label 0
* c1ccc(Nc2ccccn2)cc1 | label 0
* Cn1c(=O)nc(-c2ccccc2)c2ccccc21 | label 1
* CC1C2CCC3C(O)C2(CC(O)C2(O)C1CC(O)C2(C)C)CC3(C)O (stereo unspecified) | label 1
* CNC1=NC(=O)C(=Cc2ccc([N+](=O)[O-])o2)S1 | label 1
* CC(C)(C)c1cc(OC2OC(CO)C(O)C(O)C2O)cc(C(C)(C)C)c1 (stereo unspecified) | label 0
* Oc1nc2ccccc2nc1O | label 1
* Clc1cc(Cl)c(N=C2NCCN2)cc1Cl | label 0
